Record form. Attribute: melting point. Fill in for each entry.

Look up and state reported melting point for Cc1cc(C)cc(C(=O)P2(=O)Oc3ccccc3-c3ccccc32)c1 (stereo unspecified) 120 to 124 °C

Look up and state reported melting point for "Cc1sc2[nH]c(=S)nc(N)c2c1C" > 260 °C

Look up and state reported melting point for Cc1cncc(C(=O)OC(C)c2nc3c(c(=O)n(C)c(=O)n3C)n2C)c1 (stereo unspecified) 110 °C

Look up and state reported melting point for "CCc1cc(OC)c(OC)cc1Cc1cnc(N)nc1N" 206 to 207 °C

Look up and state reported melting point for "CN1CCC(c2c[nH]c3ccc(NC(=O)c4ccccc4F)nc23)CC1" 125 to 126 °C

Look up and state reported melting point for C=C1CC(C(O)=Nc2cc(Cl)cc(Cl)c2)C1C(=O)O (stereo unspecified) 119 °C

----------
Record form. Attribute: melting point. Fill in for each entry.

Look up and state reported melting point for "CCCCc1nc2c(N)nc3ccccc3c2n1NCc1ccccc1" 159 to 160 °C

Look up and state reported melting point for "Cc1nc2c(OCc3cc(N(C)S(C)(=O)=O)ccc3Cl)cccn2c1Br" 158 to 162 °C

Look up and state reported melting point for "CCCCCCc1sc(C(=O)O)c2c1-c1c(cnn1C)CC2" 242 to 243 °C

Look up and state reported melting point for "N#Cc1c(N2CCN(C(=O)c3cccs3)CC2)c2cccnc2n(Cc2ccc(F)cc2)c1=O" 271 °C

Look up and state reported melting point for "O=c1ccnc(NCCCN(Cc2ccccc2Cl)c2ccccn2)[nH]1" 153 to 154 °C

Look up and state reported melting point for "CC(=O)n1ccc(O)n1" 191 °C

Look up and state reported melting point for COc1ccccc1C(O)(c1ccc(C(C)C)cc1)C(C)C (stereo not given) 85 to 86 °C

Look up and state reported melting point for "COc1cccc(CNC(=O)c2nc3scc(NC(=O)Cc4ccc(C(=O)O)cc4)c3c(=O)[nH]2)c1" 218 to 219 °C

Look up and state reported melting point for "Cc1cc(Br)cnc1CCCCN=C(NCCCc1c[nH]cn1)NC(=O)c1ccccc1" 126 to 128 °C

Look up and state reported melting point for "O=C(O)CCCCCCCCn1cc(-c2ccccc2)c(-c2ccccc2)nc1=O" 120 to 123 °C

----------
Record form. Attribute: melting point. Fill in for each entry.

Look up and state reported melting point for CNC1COc2ccc3[nH]c(C(F)(F)F)nc3c2O1 (stereo not given) 199 to 201 °C

Look up and state reported melting point for "COc1ccc(N2CCN(c3c(C)c(C)c4c(c3C)CC(C)(C)O4)CC2)cc1OC" 135 to 137 °C

Look up and state reported melting point for "COc1ccc(S(=O)(=O)N2CCc3cccc(-c4ccc(N(C)C)cc4)c32)cc1" 178 to 180 °C

Look up and state reported melting point for "Cc1cc(/C=[N+](\[O-])C(C)C)cc(C)c1O" 201 to 203 °C

Look up and state reported melting point for "CN1C(=O)CC[C@]2(C)c3ccc(-c4nc5ccccc5[nH]4)cc3CC[C@@H]12" 183 to 186 °C

----------
Record form. Attribute: melting point. Fill in for each entry.

Look up and state reported melting point for CCCCN1N=C(c2ccc3c(c2)C(C)(C)CC(=O)N3C)C(C)CC1=O (centres undefined) 137 to 139 °C

Look up and state reported melting point for CC(CCCCCOCCc1ccccc1)NCC(O)c1ccc2c(n1)COC(c1ccccc1)O2 (centres undefined) 61 to 67 °C

Look up and state reported melting point for "COc1nc(C)cnc1NS(=O)(=O)c1ccccc1-c1ccc(CC(C)(C)C(=O)O)cc1" 202 to 204 °C

Look up and state reported melting point for O=C(NCC(Cc1ccccc1)C(=O)Nc1n[nH]c(=S)s1)OCc1ccccc1 (centres undefined) 88 to 90 °C

Look up and state reported melting point for "CC(=O)OC1=CCc2c(Oc3ccc(NC(=O)c4ccc(Cl)c(Cl)c4)cn3)cccc21" 161 to 164 °C

Look up and state reported melting point for Fc1cc(Cl)ccc1C1(Br)NNC2=C1CCCC2 (centres undefined) 95 to 98 °C

Look up and state reported melting point for "Cc1cc(OCc2ccccc2)c(C)cc1C=O" 48 to 49 °C

Look up and state reported melting point for "CCCOc1cccc2cc(-c3ccc4c(c3)C=C(C(=O)Nc3ccc(CN(C)C5CCOCC5)cc3)CCS4(=O)=O)oc12" 246 to 248 °C

Look up and state reported melting point for CCCCNC(=O)C(C)Oc1ccc(COc2ccc(Cl)cc2)cc1 (centres undefined) 98 °C

----------
Readout Label: melting point

Look up and state reported melting point for O=C(O)C1=Cc2cc(Cl)c(I)cc2OC1C(F)(F)F (centres undefined) 225 to 226 °C

Look up and state reported melting point for "Cc1c(CC(=O)O)oc2ccccc12" 108 °C

Look up and state reported melting point for "COC(=O)c1ccccc1S(=O)(=O)NC(=O)Nc1nc(Cl)c(C)c(OC)n1" 204 to 205 °C

Look up and state reported melting point for CCCN(CCC)CC1CCCCN1CCNC(=O)N1c2ccccc2NC(=O)c2cccnc21 (centres undefined) 149 to 151 °C

Look up and state reported melting point for "N#CCCNC(=O)c1cccc(-c2ccc3c(n2)N(Cc2ccc(Cl)cc2Cl)CC3)c1" 156 to 157 °C

Look up and state reported melting point for O=C(c1cccs1)C1C(=O)N(C(=O)NS(=O)(=O)Cl)c2ccc(Cl)cc21 (centres undefined) 166 to 169 °C

Look up and state reported melting point for "COC(=O)c1cccc2c1Oc1c(cccc1C(=O)OC)N2" 145 to 146 °C

Look up and state reported melting point for "O=CC(=Cc1cccc(OCc2ccc(Cl)cc2)c1)C(C=O)=Cc1cccc(OCc2ccc(Cl)cc2)c1" 193 to 194 °C

Look up and state reported melting point for "COC(=O)C(C#N)=Cc1cc(-n2c(=O)cc(C(F)(F)F)n(C)c2=O)ccc1Cl" 187 to 188 °C

----------
Readout Label: melting point

Look up and state reported melting point for CC(C)(C)c1ccc(C(=O)n2c3c(c4ccccc42)CC(C(=O)O)CC3)cc1 (stereo not given) 174 to 175 °C

Look up and state reported melting point for CC(C(=O)NCC(F)(F)C(F)(F)F)C(=O)NC1C(=O)Nc2cc(F)ccc2OC1C (stereo not given) 215 to 216 °C

Look up and state reported melting point for CC1(C)COc2cc3c(cc21)C1(CO3)C(=O)N(C(c2ccccc2)c2ccccc2)c2ccccc21 (stereo not given) 190 to 192 °C

Look up and state reported melting point for "Nc1ccc(CCC(=O)Nc2cnc3ccccc3c2)cc1[N+](=O)[O-]" 220 °C

Look up and state reported melting point for "CCOC(=O)c1ccc2[nH]cc(C3CCN(C)CC3)c2c1" 155 to 157 °C

----------
Record form. Attribute: melting point. Fill in for each entry.

Look up and state reported melting point for "O=C(C(=O)c1ccc(F)c(Br)c1)c1ccc(OCCF)cc1" 107 °C

Look up and state reported melting point for "O=C(O)C1CCC(c2ccc(OCc3ccc4ccccc4n3)cc2)(c2ccc(OCc3ccc4ccccc4n3)cc2)CC1" 194 to 199 °C

Look up and state reported melting point for "CCCOCCOc1cccc(-c2ccc3c(c2)C=C(C(=O)Nc2ccc(CN(C)C4CCOCC4)cc2)CCS3(=O)=O)c1" 166 to 167 °C

Look up and state reported melting point for "CC(C)c1ccc(-c2nc3ccc(OC(F)(F)F)cc3[nH]2)cc1" 203 to 205 °C

Look up and state reported melting point for "CCCn1nc2c(O)nc3ccccc3c2c1CC(C)(C)O" 294 to 296 °C

Look up and state reported melting point for COC(C)c1cc(N2C(=O)C3=C(CCCC3)C2=O)c(F)cc1Cl (centres undefined) 141 to 144 °C

Look up and state reported melting point for CC(C)CCCC(C)C1CCC2C3CC=C4CC(NC(=O)CCNC(=O)CCCCCNc5ccc([N+](=O)[O-])cc5[N+](=O)[O-])CCC4(C)C3CCC12C (centres undefined) 197 to 198 °C

Look up and state reported melting point for "N#Cc1ccc(C#CCN2CCc3nc(N)sc3CC2)cc1" 174 to 176 °C

Look up and state reported melting point for "O=C(CCCCC(=O)Oc1ccc(N=Nc2ccccc2)cc1)Oc1ccc(N=Nc2ccccc2)cc1" 176 to 177 °C

----------
Readout Label: melting point

Look up and state reported melting point for "CCOc1ccc2nc(NC(=O)CN3CCN(C(=O)CCCCCCC(=O)N(O)C(C)=O)CC3)sc2c1" 98 to 103 °C

Look up and state reported melting point for COc1ccc(Cn2c3c(c4cc(F)cc(F)c42)CCCC3CC(=O)O)cc1 (configuration not stated) 149 to 151 °C

Look up and state reported melting point for "CC(=O)Oc1coc(-c2cccc(N)c2)cc1=O" 127 to 129 °C

Look up and state reported melting point for "NS(=O)(=O)c1ccc2cc(O)c(O)cc2c1" 218 to 228 °C

Look up and state reported melting point for "NC(=O)c1[nH]c2ccccc2c1-c1ccc(NC(=O)Nc2ccccc2)cc1" 232 to 234 °C

Look up and state reported melting point for "N#Cc1ccc2c(c1)C(=O)CC1(CCCCC1)O2" 92 to 93 °C

Look up and state reported melting point for CS(=O)c1ccc(COS(C)(=O)=O)cc1 (configuration not stated) 63 to 65 °C

Look up and state reported melting point for "CCCC(=O)Nc1ncc(C(C)C)s1" 95 to 97 °C

Look up and state reported melting point for "Cc1cc(C)c(-c2nc(Oc3ccccc3)nc(Oc3ccccc3)n2)c(C)c1" 135 to 143 °C

Look up and state reported melting point for "COC(=O)c1cn(-c2cc(C(=O)OC)c([N+](=O)[O-])cc2C(F)(F)F)cn1" 136 to 138 °C

Look up and state reported melting point for "N#Cc1ccc(N(Cc2ccccc2)n2cnnc2)cc1-c1ccc(O)cc1" 229 to 230 °C

Look up and state reported melting point for "COc1ccc(CN(C)CCCc2ccc(NC(=O)c3cccc4c(=O)c5cccc(OC)c5sc34)cc2)cc1OC" 144 to 146 °C

Look up and state reported melting point for "NCC1CCN(c2nc3ccccc3[nH]2)CC1" 136 to 138 °C

Look up and state reported melting point for Cc1ccc(N2C(=O)C(O)=C(C(=O)c3ccc(C(C)C)cc3)C2c2ccc(Oc3ccccn3)cc2)nn1 (configuration not stated) 280 °C

Look up and state reported melting point for "CCCN(CCC)C(=O)Cc1c(-c2ccc(Cl)cc2)nn2cccnc12" 104 to 106 °C

Look up and state reported melting point for "CN(C)CCNC(=O)c1cccc2cc[nH]c12" 100 to 102 °C

Look up and state reported melting point for "CCc1nc(NC)sc1C(=O)c1ccc(Cl)c([N+](=O)[O-])c1" 186 to 190 °C

Look up and state reported melting point for "Fc1ccc(Cn2c(NC3CCN(CCc4cccs4)CC3)nc3ccccc32)cc1" 152 °C

Look up and state reported melting point for "CCn1nc(C)c2nc(C)nc(NCCO)c21" 166 to 168 °C

Look up and state reported melting point for "CC(C)CN(Cc1ccccc1)c1ncnc2nc[nH]c12" 160 to 162 °C

Look up and state reported melting point for "OCc1c(-c2ccccc2)c(-c2ccccc2)nn1Cc1ccccc1" 138 °C

Look up and state reported melting point for "COc1ccccc1C(=O)Nc1cc(C)ccc1C#N" 147 to 149 °C

Look up and state reported melting point for "CCc1nc2c(N)nc(C)c(C)c2n1Cc1cc(-c2ccc(F)cc2)no1" 255 to 256 °C

Look up and state reported melting point for "CC(=O)Nc1ccc(CSc2ccc(CC(=O)O)cc2)c(C(=O)O)c1" 205 to 207 °C

Look up and state reported melting point for CC(C)C1(C)NC(c2ncccc2CO)=NC1=O (configuration not stated) 145 to 149 °C

Look up and state reported melting point for "CCCCc1ccc(CCCCC(COC(C)=O)(COC(C)=O)NC(C)=O)cc1" 68 to 71 °C

Look up and state reported melting point for CC(=O)OCC1OC(SC(c2ccccc2)(c2ccccc2)c2ccccc2)C(OC(C)=O)C(OC(C)=O)C1OC(C)=O (configuration not stated) 178 to 180 °C

Look up and state reported melting point for "CN(C)CCNC(=S)Nc1ccc(-c2nnc(CSCCOc3ccccc3)o2)cc1" 155 to 158 °C

Look up and state reported melting point for "Cc1nc(C[C@H]2CC[C@@](C)(NCC(=O)N3C[C@@H](F)C[C@H]3C#N)C2(C)C)no1" 121 to 123 °C

Look up and state reported melting point for "CC(=O)Oc1cc(Br)cc2c1OC(C)(C)C2" 76 °C

Look up and state reported melting point for "N#Cc1cnn(-c2ccc(Cl)cc2Cl)c1C(F)(F)F" 83 to 85 °C

Look up and state reported melting point for "Cc1nc2c(c3c1[nH]c1ccc(F)cc13)C(=O)CC(C)(C)C2" 229 to 230 °C

Look up and state reported melting point for "CCCCC[C@H]1CC[C@H](C(=O)Oc2ccc(OC(F)F)cc2)CC1" 54 °C

Look up and state reported melting point for "N#Cc1ccc(-c2cn(-c3ccc(I)cc3)c(SCc3ccccn3)n2)cc1" 180 to 184 °C

Look up and state reported melting point for COC(=O)C(O)C(NC(=O)OCc1ccccc1)C(=O)OC (configuration not stated) 129 °C

Look up and state reported melting point for "COC(=O)c1ccn2ccnc2c1" 143 °C

Look up and state reported melting point for "Cc1nc(N2CCN(Cc3ccc(F)cc3)C2=O)sc1-c1nn[nH]n1" 145 to 149 °C

Look up and state reported melting point for "O=C(O)CCC#Cc1ccccc1Br" 87 to 91 °C

Look up and state reported melting point for CSc1ncncc1C1c2cc(C#N)ccc2CC1(C)C (configuration not stated) 157 to 158 °C

Look up and state reported melting point for CC(=O)c1ccc(CC2SC(=O)NC2=O)cc1 (configuration not stated) 171 to 172 °C

Look up and state reported melting point for "CC(C)c1ccc2c(c1)NC(=S)C2=O" 169 to 180 °C

Look up and state reported melting point for "Cc1c(Cl)c(=O)n2c3c(cc(C(O)(C(F)(F)F)C(F)(F)F)cc13)CCC2" 266 to 268 °C
